# test summary: Solubility in triacetin/benzyl alcohol 2:1 (volume/volume) solvent mixture
# Assay type: physicochemical
# measurement conditions: 25% weight/volume florfenicol, 20° C.
property name: Solubility at selected concentration of contained florfenicol

>>> df
                         compound_structure  endpoint_value
0  CCOC(=O)O[C@H](c1ccc(S(C)(=O)=O)cc1)[C@@H](CF)NC(=O)C(Cl)Cl         soluble
1  CCCCOCCOC(=O)O[C@H](c1ccc(S(C)(=O)=O)cc1)[C@@H](CF)NC(=O)C(Cl)Cl         soluble
2  CS(=O)(=O)c1ccc([C@@H](OC(=O)OCCOC(=O)O[C@H](c2ccc(S(C)(=O)=O)cc2)[C@@H](CF)NC(=O)C(Cl)Cl)[C@@H](CF)NC(=O)C(Cl)Cl)cc1         soluble
3  CS(=O)(=O)c1ccc([C@@H](OC(=O)OCc2ccccc2)[C@@H](CF)NC(=O)C(Cl)Cl)cc1         soluble

* * *

Quick reference for Syringeability measurement: Relative to NUFLOR among some compounds
# test summary: Syringeability of dosing solutions (dripping-syringe method)
# Type: physicochemical
# measurement conditions: prodrug concentration equivalent to 300 mg/ml florfenicol; Triacetin/benzyl alcohol - 2:1 (vol/vol); 15° C.

Example entries begin here.
>>> print(df.to_string())
                         compound_structure  endpoint_value
0  CCOC(=O)O[C@H](c1ccc(S(C)(=O)=O)cc1)[C@@H](CF)NC(=O)C(Cl)Cl            0.55
1  CS(=O)(=O)c1ccc([C@@H](OC(=O)OCc2ccccc2)[C@@H](CF)NC(=O)C(Cl)Cl)cc1            0.88
2  CCCCOCCOC(=O)O[C@H](c1ccc(S(C)(=O)=O)cc1)[C@@H](CF)NC(=O)C(Cl)Cl            0.61

Okay, next one:
Give me measured Syringeability measurement: Relative to NUFLOR, please, for this compound: `CS(=O)(=O)c1ccc([C@@H](OC(=O)OCCOC(=O)O[C@H](c2ccc(S(C)(=O)=O)cc2)[C@@H](CF)NC(=O)C(Cl)Cl)[C@@H](CF)NC(=O)C(Cl)Cl)cc1`
0.93

* * *

# test summary: Solubility in triacetin/benzyl alcohol 2:1 (volume/volume) solvent mixture
# Type: physicochemical
# measurement conditions: 40% weight/volume florfenicol, 20° C.
property name: Solubility at selected concentration of contained florfenicol

In [3]: df
Out[3]:
                                   compound  endpoint_value
0  CS(=O)(=O)c1ccc([C@@H](O)[C@@H](CF)NC(=O)C(Cl)Cl)cc1 [Florfenicol, reference compound]       insoluble
1  CCOC(=O)O[C@H](c1ccc(S(C)(=O)=O)cc1)[C@@H](CF)NC(=O)C(Cl)Cl       insoluble
2  CCCCOCCOC(=O)O[C@H](c1ccc(S(C)(=O)=O)cc1)[C@@H](CF)NC(=O)C(Cl)Cl         soluble
3  CS(=O)(=O)c1ccc([C@@H](OC(=O)OCc2ccccc2)[C@@H](CF)NC(=O)C(Cl)Cl)cc1       insoluble

Proceed to the following item.
Determine from records and report Solubility at selected concentration of contained florfenicol for `CS(=O)(=O)c1ccc([C@@H](OC(=O)OCCOC(=O)O[C@H](c2ccc(S(C)(=O)=O)cc2)[C@@H](CF)NC(=O)C(Cl)Cl)[C@@H](CF)NC(=O)C(Cl)Cl)cc1`
soluble
